System: SK-MEL-28
Assay: Cytotoxicity against human SK-MEL-28 cells harboring BRAF […]/PTEN mutation assessed as cell viability by MTS assay
Type: functional, cell-based
Result type: pIC50
Note on units: pIC50 is unitless, being -log10 of a concentration expressed in mol/L.

// pIC50 lookup, compound = `CC1(C)CC[C@]2(C(=O)O)CC[C@]3(C)C(=CC[C@@H]4[C@@]5(C)CC[C@H](O[C@@H]6O[C@H](CO[C@@H]7OC[C@H](O)[C@H](O)[C@H]7O[C@@H]7OC[C@H](O)[C@H](O)[C@H]7O)[C@@H](O)[C@H](O)[C@H]6O)C(C)(C)[C@@H]5CC[C@]43C)[C@@H]2C1` , result: 5.09

// pIC50 lookup, compound = CC1(C)CC[C@]2(C(=O)O)CC[C@]3(C)C(=CC[C@@H]4[C@@]5(C)CC[C@H](O[C@@H]6O[C@H](CO[C@@H]7OC[C@H](O)[C@H](O)[C@H]7O[C@@H]7OC[C@@H](O)[C@H](O)[C@H]7O)[C@@H](O)[C@H](O)[C@H]6O)C(C)(C)[C@@H]5CC[C@]43C)[C@@H]2C1 [PITHEDULOSIDE C] , result: 5.07
